Reference for the values: patent US20190175684A1

target: annexin A1; assay: QCM, peptide fixed on the sensor chip, Anxa1 injected at various doses
pKd: −log10 of the molar value. Square brackets hold non-standard residues; d marks the D form. Ends that are not written are not given here.
measurement.name: pKd

A = [dS][dP][dT][dS][dL][dL][dF] [dSPT7 peptide]
B = [dM][dP][dT][dL][dT][dF][dR] [dMPT7 peptide]
C = [dL][dR][dF][dP][dT][dV][dL] [dLRF7 peptide]
D = [dL][dL][dS][dW][dP][dS][dA] [dLLS7 peptide]
Challenge: Arrange the 4 binders by rising pKd, starting with the smallest. Please respond with the labels ordered as the question requires.
Response given: B, A, D, C
(B: 6.53, A: 7.04, D: 7.27, C: 7.51)
